target: Human α2δ-1 subunit of Cav2.2 calcium channel (Homo sapiens (Human)); test: Binding Assay to Human α2δ-1 Subunit of Cav2.2 Calcium Channel; conditions: Table 2, dual compounds; human α2δ-1 enriched membranes, 15 nM [3H]-Gabapentin; read-out: Ki(nM) alpha2delta Hum
Sequence (P54289 25-1103): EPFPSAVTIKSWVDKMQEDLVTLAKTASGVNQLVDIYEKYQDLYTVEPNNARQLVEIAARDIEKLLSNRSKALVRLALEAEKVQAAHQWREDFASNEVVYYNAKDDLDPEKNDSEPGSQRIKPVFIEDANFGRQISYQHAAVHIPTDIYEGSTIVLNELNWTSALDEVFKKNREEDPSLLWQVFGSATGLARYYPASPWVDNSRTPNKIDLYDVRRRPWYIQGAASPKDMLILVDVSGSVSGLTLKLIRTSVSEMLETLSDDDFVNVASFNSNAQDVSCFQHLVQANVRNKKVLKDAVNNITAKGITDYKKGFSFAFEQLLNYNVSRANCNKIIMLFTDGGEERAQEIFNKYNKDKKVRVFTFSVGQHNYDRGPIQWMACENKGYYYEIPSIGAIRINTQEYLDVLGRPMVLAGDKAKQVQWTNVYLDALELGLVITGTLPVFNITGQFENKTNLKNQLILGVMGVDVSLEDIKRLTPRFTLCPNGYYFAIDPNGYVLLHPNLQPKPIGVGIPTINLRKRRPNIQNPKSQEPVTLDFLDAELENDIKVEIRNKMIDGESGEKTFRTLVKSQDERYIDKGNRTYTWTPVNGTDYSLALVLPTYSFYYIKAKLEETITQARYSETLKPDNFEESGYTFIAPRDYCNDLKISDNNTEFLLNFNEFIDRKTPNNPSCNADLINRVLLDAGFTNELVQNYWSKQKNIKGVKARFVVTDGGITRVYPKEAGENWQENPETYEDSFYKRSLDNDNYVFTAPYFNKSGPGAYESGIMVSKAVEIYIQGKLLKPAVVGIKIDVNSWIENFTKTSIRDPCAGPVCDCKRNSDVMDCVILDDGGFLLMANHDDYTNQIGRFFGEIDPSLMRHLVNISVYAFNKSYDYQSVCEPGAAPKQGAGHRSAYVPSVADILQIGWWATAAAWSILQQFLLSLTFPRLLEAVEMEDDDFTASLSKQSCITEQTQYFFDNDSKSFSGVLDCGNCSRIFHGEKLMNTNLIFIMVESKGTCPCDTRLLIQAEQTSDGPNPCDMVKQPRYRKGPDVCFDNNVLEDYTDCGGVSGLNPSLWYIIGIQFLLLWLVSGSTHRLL
observationType: Ki

compound | resultValue
CNCC[C@H](Oc1ccc(CN2CCN(C)c3ncccc3C2=O)c(Cl)c1)c1ccccc1 [Example 141] | < 100 nM
CCNc1ccc2c(n1)N(C)CCN(c1cccc(COC(CCNC)c3ccccc3)c1)C2=O (centres unmarked) [Example 29] | 500 to 3000 nM
CNCC[C@H](Oc1ccc(CN2CCCn3nccc3C2=O)cc1)c1cccs1 [Example 104] | 100 to 500 nM
CNCCC(Oc1ccc(CN2CCN(C)c3nc(C)ccc3C2=O)cc1)c1cccs1 (centres unmarked) [Example 100] | 100 to 500 nM
CNCCC(Oc1ccc(CN2CCN(C)c3ncccc3C2=O)cc1)c1cccs1 (centres unmarked) [Example 99] | < 100 nM
CNCC[C@H](Oc1ccc(CN2CCN(C)c3nc(N)ccc3C2=O)cc1)c1cccs1 [Example 103] | < 100 nM
CNCC[C@H](Oc1cccc(N2CCN(C)c3nc(N)ccc3C2=O)c1)c1cccs1 [Example 83] | 100 to 500 nM
CNCC[C@H](Oc1ccc(CN2CCCn3nc(OC)cc3C2=O)c(C)c1)c1cccs1 [Example 134] | < 100 nM
CNCC[C@@H](Oc1cccc(N2CCN(C(C)C)CCC2=O)c1)c1ccsc1 [Example 76] | 500 to 3000 nM
CNCC[C@H](Oc1cccc(N2CCN(C)c3nc(C)ccc3C2=O)c1)c1ccsc1 [Example 80] | 100 to 500 nM
CCNc1ccc2c(n1)N(C)CCN(Cc1ccc(O[C@@H](CCNC)c3cccs3)cc1)C2=O [Example 92] | 100 to 500 nM
